The measured values listed here are drawn from PubChem BioAssay (NCI).

For each entry below, report its growth inhibition value.
experiment: NCI Yeast Anticancer Drug Screen. Data for the mec2-1 strain (AID 157); conditions: S. cerevisiae mec2-1 strain, at 50.0 µM (retest, dose inferred, filed as 5.0), hits give high values
The panel holds about 79,000 compounds, 15% with a hit somewhere; the sample as a whole holds those more often.
Numbers only, in %.

Dear reader, for each entry below, please note its growth inhibition.
1. Cc1c(Cl)ccc2c(C(O)CNCc3ccccc3)cc(-c3ccc(Cl)cc3)nc12 (centres undefined)
2. O=C(NO)C(=O)Nc1cc(Cl)ccc1Cl
3. COC(=O)C(=O)/C=C(/O)c1ccc(OC)cc1

[95, 90, -9]

Can you give me growth inhibition for all of these, one by one?
1. CCC(=O)C(C(=O)CC)c1c(OC(=O)c2ccccc2)ccc(O)c1C(=O)OC
2. CCCC(=O)Oc1ccc(-c2ccccc2)cc1Br
3. CCOC(=O)C(=Cc1ccccc1Br)C(=O)OCC
4. O=[N+]([O-])/C(C(Cl)=C(Cl)Cl)=C(/Sc1ccccc1)N1CCCCC1
5. O=c1[nH]c2cc(Cl)ccc2nc1/C=C(\O)c1ccccn1
6. O=C(O)/C(=C/c1ccccc1)c1ccccc1.[Ag]
7. O=C1O/C(=C\c2ccccc2)c2ccccc21
8. Cc1ccc(NC(=O)Oc2ccc(C(C)(C)C)cc2Br)cc1NC(=O)Oc1ccc(C(C)(C)C)cc1Br

16
86
94
95
49
99
20
13

----------
assay: NCI Yeast Anticancer Drug Screen. Data for the bub3 strain (AID 167); settings: S. cerevisiae bub3 mutant strain, at 50.0 µM
The panel holds about 79,000 compounds, 15% with a hit somewhere; the sample as a whole holds those more often. Activity calls are given as the source filed them. No stated cut-off is given here; in the data, active means growth inhibition above about 70%; inactive means the rest.
# output must be one of active, inactive

> print(dat)
                                   compound  classification
1        Cc1nn(C(=S)S)c(C)c1N=Nc1ccc(Br)cc1          active
2  Cc1cccc(N2CCN(CC(O)COc3ccc4ccccc4c3)CC2)c1 (stereo unspecified)        inactive
3                    CCSC(=S)NC(=O)c1ccccc1        inactive
4  CCOC(=O)c1c(Cl)nnc(-c2ccccc2)c1-c1ccccc1          active
5  CCN(CC)CCNC(=O)c1ccc(N=Cc2cc(Cl)cc(Cl)c2O)cc1          active

Lab note: next compound to report on.
Which outcome did this test record for the compound O=C1C(=O)C(Cc2ccccc2)(c2ccccc2)C(=O)N1c1ccccc1 (stereo unspecified) ?
inactive

----------
Experiment: NCI Yeast Anticancer Drug Screen. Data for the rad50 strain (AID 155);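 also: 0% = growth of vehicle-only cultures of the same strain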
Settings: S. cerevisiae rad50 strain growth inhibition; at 50.0 µM; hits give high values
Procedure: Growth inhibition of yeast strains with defined genetic alterations is measured as a screen for potential anti-cancer activity. Selected strains with alterations in DNA damage repair or cell cycle control were exposed to compounds and growth inhibition was measured relative to vehicle treated controls. The strain used in this assay is rad50
The panel holds about 79,000 compounds, 15% with a hit somewhere; the sample as a whole holds those more often.
Label T when growth inhibition is at or above 70%; anything below gets F.

> print(dat)
                      compound  classification
1  O=C(O)/C=C/C(=O)c1ccc(O)cc1               T

I'd appreciate it if you could say whether COc1ccc(C2CC(c3c(O)ccc4ccccc34)=NN2)cc1OC (stereo unspecified) has growth inhibition at least equal to 70%.
T

Does COc1cc(C(c2cc3c(cc2OC(C)=O)OCO3)C(C(C)=O)C(C)=O)cc(OC)c1OC(C)=O (stereo unspecified) have a reported growth inhibition of at least 70%?
F

Textbook exercise: given the entry N#CC(=C1C=CC(=NO)C=C1)c1cccc2ccccc12 , state whether its growth inhibition is greater than or equal to 70%.
T

API: above_or_equal(metric=growth inhibition, cutoff=70%) for item COc1ccc(CSC(=S)Nc2ccc(Cl)c([N+](=O)[O-])c2)cc1
T

Is the recorded value of growth inhibition equal to or greater than 70% for this compound? Oc1ccccc1C(Sc1nc2ccccc2s1)Sc1nc2ccccc2s1
T

Please indicate if the recorded growth inhibition for CC(=O)N(C)C1=C(Sc2ccc(C)cc2)C(=O)c2ccccc2C1=O meets or exceeds 70%.
T

Kindly determine if growth inhibition recorded for COc1ccc2c(C)cc(N/N=C(\C)c3ccccn3)nc2c1 is above or exactly 70%.
T

Check this compound for growth inhibition at or above 70%: O=C1C=CC2C(=O)c3ccccc3C(=O)C2=C1 (stereo unspecified)
T

----------
assay: NCI Yeast Anticancer Drug Screen. Data for the mlh1 rad18 strain (AID 175); conditions: S. cerevisiae mlh1 rad18 strain growth inhibition; at 50.0 µM; hits give high values
Compounds without any hit were thinned out: in the full panel of roughly 79,000, 15% have a hit.
growth inhibition vs 80%: at or above is condition met, below is condition not met.

Here are 8 compounds together with their reported answers.
> print(dat)
                                   compound     classification
1      O=[N+]([O-])c1ccc(N/N=C/c2cccnc2)cc1  condition not met
2                   COc1cccc(/C=N/N(C)C)c1O  condition not met
3  CO[C@H]1CC[C@@]2(C)C(=CC[C@H]3[C@@H]4C[C@H](OC(C)=O)C[C@@]4(C)CC[C@@H]32)C1  condition not met
4  CC[N+]1(C)CCC(O)(c2ccc(Cl)c(Cl)c2)C(C(=O)c2ccc(Cl)c(Cl)c2)C1 (stereo not given)      condition met
5  COc1cc(C2c3cc4c(cc3OC3(O)C=C(C)OC(=O)C23)OCO4)cc(OC)c1OC (stereo not given)  condition not met
6  O=C(N/N=C/c1ccccc1O)C1Cc2ccccc2C1C(Cl)Cl (stereo not given)      condition met
7                   Oc1ccc2c(ccc3ccccc32)c1      condition met
8  Cc1cc[c]([Sn]([Cl])([O][Sn]([Cl])([c]2ccc(C)cc2)[c]2ccc(C)cc2)[c]2ccc(C)cc2)cc1      condition met

Decide: growth inhibition of ON(C(=Nc1ccc(Cl)cc1)c1ccccc1)c1ccccc1 >= 80%?
condition met

----------
test: NCI Yeast Anticancer Drug Screen. Data for the cln2 rad14 strain (AID 165);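 also: 0% = growth equal to vehicle treated cultures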; details: S. cerevisiae cln2 rad14 strain, at 50.0 µM (retest, dose inferred, filed as 5.0)
The panel holds about 79,000 compounds, 15% with a hit somewhere; the sample as a whole holds those more often. The source made the active and inactive calls. No stated cut-off is given here; in the data, active means growth inhibition above about 70%; inactive means the rest.
Response enum: active, inactive

> print(dat)
                               compound  classification
1    CC1(C)C=CC2=C(O1)C(=O)c1ccccc1C2=O        inactive
2  N#C/C(=C1C=C/C(=N/O)C=C/1Cl)c1ccccc1        inactive
3                     S=C(S)NCCN1CCNCC1        inactive
4      COc1ccc(CC2=CC(=O)C(=O)C=C2C)cc1        inactive

Lab note: next compound to report on.
Assay outcome for Clc1ccc(SSN2CCCCC2)cc1 : what was it?
inactive

----------
experiment: NCI Yeast Anticancer Drug Screen. Data for the mec2-1 strain (AID 157); conditions: S. cerevisiae mec2-1 strain, at 5.0 µM (retest, dose inferred, filed as 0.5), hits give high values
The panel holds about 79,000 compounds, 15% with a hit somewhere; the sample as a whole holds those more often.
Answer Not met if growth inhibition is under 10%, and Met if it is 10% or more.

Consider the worked cases shown below.
> print(dat)
                                   compound  classification
1  O=C(CCCCN1CCN2c3ccccc3CCC2C1)c1ccccc1 (stereo unspecified)         Not met
2  CC(C)(C)CC(C)(C)N[P+](NC(C)(C)CC(C)(C)C)(NC(C)(C)CC(C)(C)C)NC(C)(C)CC(C)(C)C             Met
3              Cc1ccc2nn(-c3ccc(O)cc3)nc2c1             Met
4  CN(C)C1=NC2=S(SC(Nc3ccccc3)=N2)S1 (stereo unspecified)         Not met
5  Cc1nn(C(=O)c2ccccc2O)c2c1C(c1ccco1)SC(N)=N2 (stereo unspecified)             Met

Read the next record carefully.
I'd appreciate it if you could say whether OCC(O)C(O)C(O)C(O)c1cnn(-c2ccccc2)n1 (stereo unspecified) has growth inhibition at least equal to 10%.
Not met

----------
Assay: NCI Yeast Anticancer Drug Screen. Data for the bub3 strain (AID 167)
Details: S. cerevisiae bub3 mutant strain, at 50.0 µM (retest, dose inferred, filed as 5.0)
Protocol: Growth inhibition of yeast strains with defined genetic alterations is measured as a screen for potential anti-cancer activity. Selected strains with alterations in DNA damage repair or cell cycle control were exposed to compounds and growth inhibition was measured relative to vehicle treated controls. The strain used in this assay is bub3
Compounds without any hit were thinned out: in the full panel of roughly 79,000, 15% have a hit. The source made the active and inactive calls. Cut-off read from the data, not from the text of the source: active = growth inhibition above about 70%; inactive = the rest.
Mark one answer only. Choices: active, inactive

> print(dat)
                                   molecule  classification
1  CCCCCCCCCCCCCCC(O)C(=O)O (stereo unspecified)        inactive
2  Cc1nn(C(=O)c2ccncc2)c(C)c1N=Nc1ccccc1[N+](=O)[O-]        inactive
3      CC(=O)c1ccc(Cl)c(N=Cc2cc(Br)ccc2O)c1          active
4  CCC(Sc1ccccc1[N+](=O)[O-])[N+](=O)[O-] (stereo unspecified)        inactive
5        O=C(O)CSCc1cc2c3ccccc3sc2c2ccccc12          active

Now let's try a different one.
Please indicate how the test categorized COc1ccc(C2CC(c3c(O)ccc4ccccc34)=NN2)cc1OC (stereo unspecified) .
active
